Values compiled from the supplement of paper PMC4862054.

# Tested on: HDQ-P1
# ASSAY_SUMMARY: normalised viability (% of control), CellTiter-Blue; higher = more viable cells (about 100 = DMSO control)
# EXPERIMENTAL_SETUP: 30 nM; incubation time: 72 h
Items are presented alongside their recorded normalised viability.
EXPERIMENTAL_ENDPOINT: normalised viability (%)

INSERT INTO measurements (compound, unit_name, quantitative_readout) VALUES
  ('C[C@@H](CN1CC(=O)NC(=O)C1)N1CC(=O)NC(=O)C1', '%', 107),
  ('NC(=O)c1cccc2cn(-c3ccc([C@@H]4CCCNC4)cc3)nc12', '%', 94.1),
  ('O=NN(CCCl)C(=O)NC1CCCCC1', '%', 98.7),
  ('O=C(c1cc(Cc2n[nH]c(=O)c3ccccc23)ccc1F)N1CCN(C(=O)C2CC2)CC1', '%', 102),
  ('Cc1c(C(=O)Nc2ccc(N3C[C@@H](C)O[C@@H](C)C3)nc2)cccc1-c1ccc(OC(F)(F)F)cc1', '%', 84),
  ('Cc1c(N)nc([C@H](CC(N)=O)NC[C@H](N)C(N)=O)nc1C(=O)N[C@H](C(=O)N[C@H](C)[C@@H](O)[C@H](C)C(=O)N[C@H](C(=O)NCCc1nc(-c2nc(C(=O)NCCC[S+](C)C)cs2)cs1)[C@@H](C)O)[C@@H](OC1OC(CO)C(O)C(O)C1OC1OC(CO)C(O)C(OC(N)=O)C1O)c1cnc[nH]1 (stereo partly specified)', '%', 88.5);
